assay: Hepatic Stability Assay (in vitro half-life method); format: in vitro ADME; design: dose or concentration left out as unconfirmed; settings: pooled cryopreserved hepatocytes, 37° C., 1×10^6 cells/mL, 0-6 hours, LC-MS/MS, 39.5 hours is the maximum detectable half life, read-out: t½ (converted)
So basically: is half-life under 10 h? Then 1. Not under? Then 0.

Does this compound meet the criterion half-life < 10 h? Cc1c(C(=O)C(=O)NC2(C(N)=O)CC(F)(F)C2)c2n(c1C(=O)Nc1cc(F)c(F)c(F)c1)CCC2
0

Confirm or reject: half-life of Cc1c(C(=O)C(=O)NC2(C(=O)N3CC4(C3)CN(S(C)(=O)=O)C4)CC(F)(F)C2)c2n(c1C(=O)Nc1ccc(F)c(Cl)c1)CCC2 lies strictly below 10 h
0

I wonder whether CNC(=O)C1(NC(=O)C(=O)c2c(C)c(C(=O)Nc3cc(F)c(F)c(F)c3)n3c2CCC3)CC(F)(F)C1 has half-life below 10 h. Can you tell?
0

Lab note: half-life threshold 10 h. Does this compound come in strictly under it? Cc1c(C(=O)C(=O)NC2(c3nncs3)CC2)c2n(c1C(=O)Nc1ccc(F)c(Cl)c1)CCC2
1

# check: half-life < 10 h for Cc1c(C(=O)C(=O)NC2(c3c[nH]nn3)CC2)c2n(c1C(=O)Nc1cc(F)c(F)c(F)c1)CCC2
1

In the record for CNC(=O)C1(NC(=O)C(=O)c2c(C)c(C(=O)Nc3ccc(F)c(Cl)c3)n3c2CCC3)CC1 , is half-life less than 10 h?
0

###

pEC50 values, listed per item
tested on: HBV AD38 viral particles in HepG2 cell line overexpressing NTCP; assay: HBV DNA Quantification Assay; format: cell-based; conditions: Hepatitis B virus, HepG2, 120 h, HBV-infected HepG2-NTCP cells, 5 days incubation, HBV DNA in culture supernatant (QuantiGene 2.0); geometric mean of a minimum of four determinations
In plain terms, pEC50 is the concentration in mol/L turned into minus its base-10 logarithm.

Example compounds with recorded pEC50:
[
  {
    "sample.smiles": "CNC(=O)C1(NC(=O)C(=O)c2c(C)c(C(=O)Nc3ccnc(C(F)F)c3F)n3c2CCC3)CC(F)(F)C1",
    "pEC50": 6.99
  },
  {
    "sample.smiles": "C#CC1(NC(=O)C(=O)c2c(C)c(C(=O)Nc3ccc(F)c(Cl)c3)n3c2CCC3)CC(F)(F)C1",
    "pEC50": 8.74
  },
  {
    "sample.smiles": "C#CC1(NC(=O)C(=O)c2c(C)c(C(=O)Nc3cc(F)c(F)c(F)c3)n3c2CCC3)CC1",
    "pEC50": 8.19
  }
]

Could you now look at the following compound, please?
Using known records, supply pEC50 for CNC(=O)C1(NC(=O)C(=O)c2c(C)c(C(=O)Nc3ccc(F)c(Cl)c3)n3c2[C@H]2C[C@H]2C3)CC(F)(F)C1
6.69

###

tested on: HBV AD38 viral particles in HepG2 cell line overexpressing NTCP; test: HBV DNA Quantification Assay; format: cell-based; details: Hepatitis B virus, HepG2, 120 h, HBV-infected HepG2-NTCP cells, 5 days incubation, HBV DNA in culture supernatant (QuantiGene 2.0); geometric mean of a minimum of four determinations
measured.quantity: EC50 (nM)
Answer format: numeric, nM implied, no suffix.

// known answers, use as guide
[
  {
    "compound": "Cc1c(C(=O)C(=O)NC2(C(=O)N3CC4(C3)CN(S(C)(=O)=O)C4)CC(F)(F)C2)c2n(c1C(=O)Nc1ccc(F)c(Cl)c1)CCC2 [Example 28]",
    "measured.quantity": "EC50",
    "measurement.unit": "nM",
    "reading": 112
  },
  {
    "compound": "Cc1c(C(=O)C(=O)NC2(c3c[nH]nn3)CC2)c2n(c1C(=O)Nc1ccc(F)c(Cl)c1)C[C@@H](F)C2 [Example 46]",
    "measured.quantity": "EC50",
    "measurement.unit": "nM",
    "reading": 264
  },
  {
    "compound": "CNC(=O)C(C)(C)NC(=O)C(=O)c1c(C)c(C(=O)Nc2ccc(F)c(Cl)c2)n2c1CCC2 [Example 82]",
    "measured.quantity": "EC50",
    "measurement.unit": "nM",
    "reading": 133
  },
  {
    "compound": "CNC(=O)[C@@](C)(NC(=O)C(=O)c1c(C)c(C(=O)Nc2ccc(F)c(F)c2)n2c1CCC2)C(F)(F)F [Example 137]",
    "measured.quantity": "EC50",
    "measurement.unit": "nM",
    "reading": 158
  }
]

Supply recorded EC50 for Cc1c(C(=O)C(=O)NC2(c3c[nH]nn3)CC2)c2n(c1C(=O)Nc1cc(F)cc(C#N)c1)CCC2 [Example 126] here.
166

Fill in reported EC50 for this entry: Cc1c(C(=O)C(=O)NC2(c3cnn[nH]3)CC2)c2n(c1C(=O)Nc1ccc(F)c(Cl)c1F)CCC2 [Example 84]
31

###

This listing pairs molecules with measured log10(half-life).
assay: Hepatic Stability Assay (in vitro half-life method); assay type: in vitro ADME; set-up: dose or concentration left out as unconfirmed; conditions: pooled cryopreserved hepatocytes, 37° C., 1×10^6 cells/mL, 0-6 hours, LC-MS/MS, 39.5 hours is the maximum detectable half life, read-out: t½ (converted)
A value of 2 here means half-life of 100 in h, since values are log10.

[
  {
    "molecule": "Cc1c(C(=O)C(=O)NC2(C#N)CC(F)(F)C2)c2n(c1C(=O)Nc1ccc(F)c(Cl)c1)CCC2 [Example 130]",
    "measured.quantity": "log10(half-life)",
    "reading": 0.82
  }
]

Query log10(half-life) for Cc1c(C(=O)C(=O)NC2(c3c[nH]nn3)CC2)c2n(c1C(=O)Nc1ccc(F)c(Cl)c1)[C@@H]1C[C@@H]1C2 [Example 52]
0.62

Query log10(half-life) for Cc1c(C(=O)C(=O)NC2(c3c[nH]nn3)CC(F)(F)C2)c2n(c1C(=O)Nc1ccc(F)cc1)CCC2 [Example 32]
0.94

Fill in log10(half-life) for record Cc1c(C(=O)C(=O)N[C@H](C)C(F)(F)F)c2n(c1C(=O)Nc1ccc(F)c(Cl)c1)CCC2 [Example 2]
1.18

Retrieve log10(half-life) measured for Cc1c(C(=O)C(=O)NC2(C(=O)N(C)C)CC(F)(F)C2)c2n(c1C(=O)Nc1ccc(F)c(Cl)c1)CCC2 [Example 124] and print it.
0.00

###

The following compounds are listed with their measured pEC50 values.
tested on: HBV AD38 viral particles in HepG2 cell line overexpressing NTCP; assay: HBV DNA Quantification Assay; format: cell-based; settings: Hepatitis B virus, HepG2, 120 h, HBV-infected HepG2-NTCP cells, 5 days incubation, HBV DNA in culture supernatant (QuantiGene 2.0); geometric mean of a minimum of four determinations
# reply with the number alone; pEC50 is -log10 of concentration in mol/L

[
  {
    "sample.smiles": "Cc1c(C(=O)C(=O)NC2(c3nncs3)CC2)c2n(c1C(=O)Nc1ccnc(C(F)F)c1F)[C@@H]1C[C@@H]1C2",
    "pEC50": 6.96
  },
  {
    "sample.smiles": "Cc1c(C(=O)C(=O)NC2(C(=O)NC3(C)CS(=O)(=O)C3)CC(F)(F)C2)c2n(c1C(=O)Nc1ccc(F)c(Cl)c1)CCC2",
    "pEC50": 6.99
  },
  {
    "sample.smiles": "Cc1c(C(=O)C(=O)NC2(c3c[nH]nn3)CC2)c2n(c1C(=O)Nc1ccc(F)c(C(F)F)c1)CCC2",
    "pEC50": 7.72
  }
]

Name the recorded pEC50 of the compound listed here: CNC(=O)C(C)(C)NC(=O)C(=O)c1c(C)c(C(=O)Nc2cc(F)c(F)c(F)c2)n2c1CCC2
6.70

Note pEC50 for the compound shown: Cc1c(C(=O)C(=O)NC2(c3c[nH]nn3)CC(F)(F)C2)c2n(c1C(=O)Nc1ccnc(C(F)F)c1F)[C@@H]1C[C@@H]1C2
8.06

In one line, give reported pEC50 of the entry Cc1c(C(=O)C(=O)NC2(c3c[nH]nn3)CC(F)(F)C2)c2n(c1C(=O)Nc1ccc(F)c(Cl)c1)[C@@H]1C[C@@H]1C2 .
8.68

Check the records and state pEC50 for Cc1c(C(=O)C(=O)NC2(c3c[nH]nn3)CC2)c2n(c1C(=O)Nc1ccc(F)c(Cl)c1)C[C@H](F)C2
8.04

###

Test system: HBV AD38 viral particles in HepG2 cell line overexpressing NTCP
Assay: HBV DNA Quantification Assay
Type: cell-based
Conditions: Hepatitis B virus, HepG2, 120 h, HBV-infected HepG2-NTCP cells, 5 days incubation, HBV DNA in culture supernatant (QuantiGene 2.0); geometric mean of a minimum of four determinations
Method: HBV DNA Quantification Assay […] The culture supernatant was harvested and treated with lysis buffer containing Proteinase K (Affymetrix, Santa Clara, Calif.). […] After the final wash step, the alkaline phosphatase substrate (Luminol APS5) was added and the resulting luminescence signal was read in an EnVision Multilabel Plate Reader (PerkinElmer, Santa Clara, Calif.). The EC50 values were calculated from the fit of the dose—response curves to a four-parameter equation. […]
measured.quantity: EC50 (nM)
I only need the number, in nM, no unit after it.

[
  {
    "sample.smiles": "Cc1c(C(=O)C(=O)NC2(c3c[nH]nn3)CC2)c2n(c1C(=O)Nc1ccc(F)c(Cl)c1)CCC2",
    "EC50, nM": 11.1
  },
  {
    "sample.smiles": "CNC(=O)C1(NC(=O)C(=O)c2c(C)c(C(=O)Nc3ccc(F)c(C#N)c3)n3c2CCC3)CC(F)(F)C1",
    "EC50, nM": 109
  },
  {
    "sample.smiles": "Cc1c(C(=O)C(=O)NC2(c3c[nH]nn3)CC(F)(F)C2)c2n(c1C(=O)Nc1cc(F)c(F)c(F)c1)CCC2",
    "EC50, nM": 3.2
  },
  {
    "sample.smiles": "CNC(=O)C1(NC(=O)C(=O)c2c(C)c(C(=O)Nc3ccc(F)c(Cl)c3)n3c2C[C@@H](O)C3)CC(F)(F)C1",
    "EC50, nM": 456
  },
  {
    "sample.smiles": "Cc1c(C(=O)C(=O)NC2(C)CS(=O)(=O)C2)c2n(c1C(=O)Nc1ccc(F)c(Cl)c1)CCC2",
    "EC50, nM": 20.1
  }
]

Hello, please tell me recorded EC50 for this one: Cc1c(C(=O)C(=O)NC2(c3c[nH]nn3)CC(F)(F)C2)c2n(c1C(=O)Nc1ccc(F)cc1)CCC2
8.5

Tell me its EC50 given Cc1c(C(=O)C(=O)NC2(c3c[nH]nn3)CC2)c2n(c1C(=O)Nc1cccc(C#N)c1)CCC2 as the entry.
106

// provenance: patent US10328053B2
